# SYSTEM NAME: T1, TIM-3 protein on human peripheral blood mononuclear lymphocytes (PBMC) (human, UniProt Q8TDQ0 22-301)
# T1 sequence: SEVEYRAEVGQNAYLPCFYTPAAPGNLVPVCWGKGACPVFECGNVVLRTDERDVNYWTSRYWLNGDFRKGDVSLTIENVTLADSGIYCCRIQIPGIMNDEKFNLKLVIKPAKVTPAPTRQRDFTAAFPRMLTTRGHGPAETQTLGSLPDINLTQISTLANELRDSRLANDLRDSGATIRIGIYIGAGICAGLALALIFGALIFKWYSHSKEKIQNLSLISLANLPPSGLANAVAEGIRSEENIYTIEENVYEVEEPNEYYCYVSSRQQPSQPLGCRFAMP
# TEST NAME: cell-based or functional assay
Catalogue of binders with associated IFN-γ production (donor X); antibody '0' (4th head as printed), N = 1
OBSERVED PROPERTY: IFN-γ production (donor X); antibody '0' (4th head as printed), N = 1 (pg/mL)

1) 7A4F10 fully human TIM-3 antibody (human IgG4, kappa) (antibody, V domains shown) VH: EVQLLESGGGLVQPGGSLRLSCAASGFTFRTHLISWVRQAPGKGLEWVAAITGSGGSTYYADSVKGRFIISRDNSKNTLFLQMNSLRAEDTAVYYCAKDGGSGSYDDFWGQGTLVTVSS VL: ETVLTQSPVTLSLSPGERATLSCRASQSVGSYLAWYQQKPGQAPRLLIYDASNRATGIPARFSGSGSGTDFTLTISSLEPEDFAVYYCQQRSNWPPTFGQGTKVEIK	2340
2) 34B6D8 fully human TIM-3 antibody (human IgG4, kappa) (antibody, V domains shown) VH: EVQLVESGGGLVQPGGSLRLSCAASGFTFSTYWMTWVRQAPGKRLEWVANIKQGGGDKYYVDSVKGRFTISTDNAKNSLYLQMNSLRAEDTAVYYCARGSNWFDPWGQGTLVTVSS VL: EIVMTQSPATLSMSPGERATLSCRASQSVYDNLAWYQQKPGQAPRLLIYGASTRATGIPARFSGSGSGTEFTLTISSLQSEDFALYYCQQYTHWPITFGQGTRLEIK	2600
3) 18D2H2 fully human TIM-3 antibody (human IgG4, kappa) (antibody, V domains shown) VH: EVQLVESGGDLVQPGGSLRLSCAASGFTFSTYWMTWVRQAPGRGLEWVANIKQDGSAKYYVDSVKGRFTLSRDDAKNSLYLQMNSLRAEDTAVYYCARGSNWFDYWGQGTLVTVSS VL: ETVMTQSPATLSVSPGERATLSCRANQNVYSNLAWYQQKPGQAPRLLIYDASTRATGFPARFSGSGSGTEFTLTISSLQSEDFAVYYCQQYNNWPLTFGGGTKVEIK	2280
